- Assay system: human TLR3 (Homo sapiens, UniProt O15455)
- Assay remarks: 293T-TLR3-ISRE luciferase reporter assay
- Type: cell-based
- Details: dsRNA TLR3 agonists
Experimental readout: inhibition of dsRNA-induced TLR3 signaling, potency compared with antibody 31C3

Molecule	Test result
7G11: rat anti-human TLR3 monoclonal antibody; VH SEQ ID NO: 47, VL SEQ ID NO: 48 (antibody, listed as Rattus norvegicus, V domains shown) VH: EVQLQQYGAELGKPGTSVKLSCKVSGYNITYTYMHWVNQRPGKGLEWIGRIDPANGNTIYGEKFKNKATLTADTSSNTAYMQLSQLKSDDTAIYFCAMGEFDYFDHWGQGVMVTVSS VL: DIQMTQSPASLSASLGETVSIECLASEDISNDLAWYQQKSGKSPQVLIYAASRLEDGVPSRFSGSGSGTRYSLKISGMQPEDEADYFCQQSYKYPVTFGSGTKLEIK	more potent
37B7: rat anti-human TLR3 monoclonal antibody; VH SEQ ID NO: 36, VL SEQ ID NO: 37 (antibody, listed as Rattus norvegicus, V domains shown) VH: QVQLQQSGTELVKPGSSVKISCKASGYTFTSNYMHWIRQLPGNGLEWIGWIFPGDGDTNYNQKFNGKATLTADKSSSTAYMQLSSLTSEDYAVYFCARSDGDWYFDFWGPGTMVTVSS VL: DIQMTQSPGSLSASLGETVTIQCQASEDIYSGLAWYQQKPRKSPQLLISAASRLQDGVPSRFSGSGSGTQYSLKISSMQTEDEGVYFCQQGVKYPNTFGPGTKLELK	more potent
